I'd appreciate it if you could supply residual activity values for the items below.
biological target: UniProtKB Q9NPD5; details: chinese hamster, cho, 10 µM
Sequence (Q9NPD5 whole entry): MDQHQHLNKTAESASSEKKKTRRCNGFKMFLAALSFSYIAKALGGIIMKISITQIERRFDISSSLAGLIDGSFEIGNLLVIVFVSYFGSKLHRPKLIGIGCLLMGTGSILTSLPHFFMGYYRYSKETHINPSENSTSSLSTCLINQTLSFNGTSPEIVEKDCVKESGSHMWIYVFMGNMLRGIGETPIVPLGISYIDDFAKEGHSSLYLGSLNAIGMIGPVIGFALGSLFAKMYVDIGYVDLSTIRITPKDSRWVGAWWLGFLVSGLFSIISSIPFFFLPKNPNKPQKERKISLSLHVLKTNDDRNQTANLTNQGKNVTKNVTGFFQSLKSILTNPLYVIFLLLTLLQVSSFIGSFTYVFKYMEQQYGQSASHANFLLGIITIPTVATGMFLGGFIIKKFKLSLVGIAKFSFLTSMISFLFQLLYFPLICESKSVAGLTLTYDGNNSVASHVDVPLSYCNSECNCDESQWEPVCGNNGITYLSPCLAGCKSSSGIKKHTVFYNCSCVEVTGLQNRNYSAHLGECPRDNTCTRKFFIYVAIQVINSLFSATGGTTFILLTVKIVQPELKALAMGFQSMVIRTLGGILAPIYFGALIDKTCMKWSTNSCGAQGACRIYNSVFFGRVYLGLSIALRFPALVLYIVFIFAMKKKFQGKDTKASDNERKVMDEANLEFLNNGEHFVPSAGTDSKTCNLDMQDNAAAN
Residues, ends and D or L forms follow the SMILES beside them. *: point of attachment. For = O=C*
Provide the reading as a plain figure in %.

Reported residual activity for UniProtKB Q9NPD5, given C[C@H](N)CO ?
104

What residual activity appears in the records for this compound with UniProtKB Q9NPD5? OC(Cn1cncn1)(Cn1cncn1)c1ccc(F)cc1F
106.5

Please tell me: residual activity of CSCC[C@H](NC=O)C(=O)N[C@@H](Cc1ccccc1)C(=O)O (For-Met-Phe-OH) , system UniProtKB Q9NPD5?
104.4

Lab request: please report residual activity under test system UniProtKB Q9NPD5 for CC[C@H](/C=C/[C@@H](C)[C@H]1CC[C@H]2[C@@H]3CC=C4C[C@@H](O)CC[C@]4(C)[C@H]3CC[C@]12C)C(C)C
103.2

Item Nc1ccc(S(=O)(=O)Nc2ncccn2)cc1 with UniProtKB Q9NPD5 - residual activity?
74.08

Notebook entry, UniProtKB Q9NPD5 assay: residual activity of COc1cc(O)cc(OC)c1OC [ANTIAROL] = ?
113

Query the reported residual activity for UniProtKB Q9NPD5; item: CC(C)c1c(O)ccc2c1CC[C@H]1[C@@](C)(C=O)CCC[C@]21C
100.9

Hello, I am looking for reported residual activity with UniProtKB Q9NPD5 for Cn1c(=O)c2c(ncn2CCO)n(C)c1=O . Could you help?
86.25

Hi! What's the reported residual activity for CC(=O)NC(Cc1ccccc1)C(=O)O (stereo not given) on UniProtKB Q9NPD5?
112.5

Form entry - test system: UniProtKB Q9NPD5; read-out: residual activity; compound: COc1ccc(C[C@H]2NC[C@H](O)[C@H]2OC(C)=O)cc1
81.11

====

Task for the reader: assign each of the following molecules its reported residual activity.
molecular target: UniProt:Q9NPD5; conditions: chinese hamster, cho, 10 µM
Just the number please, in %, no unit attached.

Please give the measured residual activity for this molecule: CC(=O)OCC1=C(C(=O)[O-])N2C(=O)[C@@H](NC(=O)Cc3cccs3)[C@H]2SC1.[Na+] [CEPHALOTHIN SODIUM]
66.3

For the molecule shown here, CC(=O)Oc1c(-c2ccccc2)oc2c(CC=C(C)C)c3c(c(OC(C)=O)c2c1=O)C=CC(C)(C)O3 [SERICETIN DIACETATE] , give the reported residual activity.
81.94

Recorded residual activity of NC1(C(=O)O)CCCC1 [CYCLOLEUCINE] , please.
108.5

residual activity lookup needed for CC1(C)O[C@@H]2C[C@H]3[C@@H]4CCC5=CC(=O)CC[C@]5(C)[C@@]4(F)[C@@H](O)C[C@]3(C)[C@]2(C(=O)CCl)O1 [HALCINONIDE] , thanks.
103.5

Entry under review: O=C(O)[C@@H](O)[C@H](O)[C@H](O)[C@@H](O)C(=O)O [MUCIC ACID] . Reported residual activity?
98.98

Entry C#CCN(C)Cc1ccccc1.Cl [PARGYLINE HYDROCHLORIDE] : reported residual activity = ?
133.9

Need residual activity, item Cc1ccc(O)cc1 [p-CRESOL]
101.1

Given the entry CC[C@@]1(O)C[C@H](O)c2c(cc3c(c2O)C(=O)c2c(O)ccc(O)c2C3=O)[C@H]1C(=O)OC [RUTILANTINONE] , report its measured residual activity.
99.74

Source listed as ChEMBL document CHEMBL3039007.
